In this section, each of the compounds is paired with its reported Ligand charge.
- Assay details: Ligand charge of maytansinoid conjugates
- Format: physicochemical

Compound: CCNC(=O)[C@@H](NC(=O)[C@@H]1CSSC[C@H](NC(=O)[C@@H](Cc2ccccc2)NCCCSSCCC(=O)N(C)[C@@H](C)C(=O)O[C@@H]2CC(=O)N(C)c3cc(cc(OC)c3Cl)C/C(C)=C/C=C/[C@@H](OC)[C@@]3(O)C[C@H](OC(=O)N3)[C@@H](C)[C@@H]3O[C@@]23C)C(=O)N[C@@H](Cc2ccc(O)cc2)C(=O)N[C@H](Cc2c[nH]c3ccccc23)C(=O)N[C@@H](CCCCN)C(=O)N[C@@H]([C@@H](C)O)C(=O)N1)[C@@H](C)O [Conjugate 50]
Ligand charge: +2

Let us move to another entry and its Ligand charge.
QUERY: What does the data say about its Ligand charge? Entry: COc1cc2cc(c1Cl)N(C)C(=O)C[C@H](OC(=O)[C@H](C)N(C)C(=O)CCSSC[C@H](NC(=O)[C@@H]1CSSC[C@H](NC(=O)[C@@H](Cc3ccccc3)NC(=O)Nc3cc(C(F)(F)F)cc(C(F)(F)F)c3)C(=O)N[C@@H](Cc3ccc(O)cc3)C(=O)N[C@H](Cc3c[nH]c4ccccc34)C(=O)N[C@@H](CCCCN)C(=O)N[C@@H]([C@@H](C)O)C(=O)N1)C(N)=O)[C@]1(C)O[C@H]1[C@H](C)[C@@H]1C[C@@](O)(NC(=O)O1)[C@H](OC)/C=C/C=C(\C)C2 [Conjugate 38]
RESULT: +1

Reference for the values: patent US20190125888A1
